test system: Plasmodium falciparum; experiment: Antimalarial activity against chloroquine-resistant Plasmodium falciparum W2 infected in human A-positive red blood cells after 72 hrs by lactate dehydrogenase assay; format: functional, organism-based; conditions: W2, 72 h
pIC50: −log10 of the molar value.
measuredAttribute: pIC50

1. CCCCC[C@H]1C=C[C@@H](CCOC(C)=O)OO1 ... 4.90
2. CCCCC[C@@H]1OO[C@H](CC(=O)OCC)[C@H]2O[C@H]21 ... 4.99
3. CCCCC[C@H]1C=C[C@@H](CC(=O)OCC)OO1 ... 5.83
4. CCCCC[C@@H]1OO[C@H](CC(=O)OCC)[C@@H](Br)[C@@H]1Br ... 5.29
5. CCCCCC/C=C/C=C/C(=O)OCC ... 6.37
6. CCCCC[C@H]1C=C[C@@H](CC(=O)O)OO1 ... 5.47
7. CCCCC[C@@H]1OO[C@H](CC(=O)OCC)[C@H](Br)[C@H]1Br ... 5.25
8. CCCCCC/C=C/C=O [2-NONENAL] ... 6.41

----------
Listing of entries alongside the reported pIC50.
system: Plasmodium falciparum; assay: Antimalarial activity against chloroquine-sensitive Plasmodium falciparum D10 infected in human A-positive red blood cells after 72 hrs by lactate dehydrogenase assay; format: functional, organism-based; conditions: D10, 72 h
pIC50: −log10 of the molar value.
measuredAttribute: pIC50

1. CCCCC[C@@H]1OO[C@H](CC(=O)OCC)[C@@H]2O[C@@H]21 ... < 4.52
2. CCCCC[C@H](O)/C=C\[C@@H](CC(=O)OCC)OCCCC ... < 4.52
3. CCCCC[C@H]1C=C[C@@H](CCOC(C)=O)OO1 ... 4.66
4. CCCCC[C@H]1C=C[C@@H](CCO)OO1 ... < 4.52
5. CCCCC[C@@H]1OO[C@H](CC(=O)OCC)[C@@H](O)[C@H]1O ... < 4.52
6. CCCCC[C@H]1C=C[C@@H](CC(=O)OCC)OO1 ... 5.92

----------
tested on: Plasmodium falciparum; test: Antimalarial activity against chloroquine-sensitive Plasmodium falciparum D10 infected in human A-positive red blood cells after 72 hrs by lactate dehydrogenase assay; assay type: functional, organism-based; details: D10, 72 h
# log10 of IC50 values compiled below
measuredAttribute: log10 of IC50 (log10 of the value in µM)

1) CCCCCC/C=C/C=C/C(=O)OCC ... -0.05
2) CCCCC[C@@H]1OO[C@H](CC(=O)OCC)[C@H](Br)[C@H]1Br ... 0.96
3) CCCCC[C@H]1C=C[C@@H](CC(=O)O)OO1 ... 0.52
4) CCCCC[C@@H]1OO[C@H](CC(=O)OCC)[C@@H](Br)[C@@H]1Br ... 0.91
5) CCCCCC/C=C/C=O ... -0.06
6) CCCCC[C@@H]1OO[C@H](CC(=O)OCC)[C@H]2O[C@H]21 ... 1.34
